- testTarget: recombinant human ALK5 (TGF-βR1) protein (Homo sapiens, UniProt P36897)
- Construct: purchased Life Technologies PR9075A
- method: Biochemical ALK5 (TGF-βR1) assay to measure pKi (LANCE Ultra ULight kinase assay)
- measurementParameters: apparent pKi from pIC50 by Cheng-Prusoff, read-out: ALK5 pKi (converted)
resultType: Ki

cpdsmiles=Cc1cccc(-c2[nH]cnc2-c2ccc3ncc(-c4cc(C(=O)O)cs4)cc3c2)n1 testtarget="recombinant human ALK5 (TGF-βR1) protein (Homo sapiens, UniProt P36897)" result="< 0.0316 nM"

Entry CNCc1c(-c2cn[nH]c2)cnc2ccc(-c3c[nH]nc3-c3cccc(C)n3)cc12 , Ki reported as 0.0398 to 0.316 nM

Entry Cc1cccc(-c2[nH]cnc2-c2ccc3ncc(C(=O)OCCCN4CCCC4)cc3c2)n1 , Ki reported as 0.0398 to 0.316 nM

Entry Cc1cccc(-c2[nH]cnc2-c2ccc3ncc(-c4cncc(C(=O)OC5CNC5)c4)cc3c2)n1 , Ki reported as 0.0398 to 0.316 nM

Entry Cc1cccc(-c2n[nH]cc2-c2ccc3ncc(-c4cn5c(n4)CN(CCO)CC5)cc3n2)n1 , Ki reported as 0.0398 to 0.316 nM

Entry Cc1cccc(-c2[nH]cnc2-c2ccc3ncc(-c4cccc(C(=O)OC5CNC5)c4)cc3c2)n1 , Ki reported as 0.0398 to 0.316 nM

Entry Cc1cccc(-c2[nH]cnc2-c2ccc3ncc(NCC(=O)O)cc3c2)n1 , Ki reported as 0.398 to 3.16 nM

Entry Cc1cccc(-c2[nH]cnc2-c2ccc3ncc(Nc4ccc(N5CCN(C)CC5)cn4)cc3n2)n1 , Ki reported as 0.0398 to 0.316 nM

====

- testTarget: recombinant human ALK5 (TGF-βR1) protein (Homo sapiens)
- Construct: purchased Life Technologies PR9075A
- Sequence (P36897 34-503): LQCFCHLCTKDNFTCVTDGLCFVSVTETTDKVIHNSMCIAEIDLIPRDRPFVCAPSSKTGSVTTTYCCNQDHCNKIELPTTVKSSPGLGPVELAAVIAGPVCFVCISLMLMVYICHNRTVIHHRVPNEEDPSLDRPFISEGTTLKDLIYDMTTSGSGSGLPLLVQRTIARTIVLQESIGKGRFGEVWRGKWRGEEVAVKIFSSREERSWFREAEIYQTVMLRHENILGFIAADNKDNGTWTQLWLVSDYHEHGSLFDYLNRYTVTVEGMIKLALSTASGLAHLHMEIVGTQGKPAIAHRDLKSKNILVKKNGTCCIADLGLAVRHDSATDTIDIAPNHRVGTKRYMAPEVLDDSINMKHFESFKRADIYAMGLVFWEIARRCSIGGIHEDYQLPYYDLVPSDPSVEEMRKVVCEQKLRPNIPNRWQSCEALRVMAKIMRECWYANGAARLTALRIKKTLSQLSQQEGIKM
- method: Biochemical ALK5 (TGF-βR1) assay to measure pKi (LANCE Ultra ULight kinase assay)
- measurementParameters: apparent pKi from pIC50 by Cheng-Prusoff, read-out: ALK5 pKi (converted)
resultType: Ki

compound=Cc1cccc(-c2n[nH]cc2-c2ccc3ncc(-c4cnn(CCN5CCNCC5)c4)cc3n2)n1 testtarget="recombinant human ALK5 (TGF-βR1) protein (Homo sapiens)" result="< 0.0316 nM"

Test item Cc1cccc(-c2[nH]ncc2-c2ccc3ncc(C(=O)OCC4CNC4)cc3c2)n1 ; recombinant human ALK5 (TGF-βR1) protein (Homo sapiens); reported Ki was 0.0398 to 0.316 nM

Test item Cc1nc(-c2nc3ccccn3c2-c2ccc3ncc(N4CCNCC4)cc3c2)ccc1F ; recombinant human ALK5 (TGF-βR1) protein (Homo sapiens); reported Ki was 0.0398 to 0.316 nM

Test item Cc1nc(-c2n[nH]cc2-c2ccc3ncc(-c4cnn(CC5CC(N)C5)c4)cc3n2)ccc1F (centres unmarked) ; recombinant human ALK5 (TGF-βR1) protein (Homo sapiens); reported Ki was 0.0398 to 0.316 nM

All figures here come from patent US11590116B2.
